Tested on: 677734-321-R-J1-PDC complex spheroid viability
METHOD NOTES: Anticancer human tumor 677734-321-R-J1-PDC patient-derived soft tissue sarcoma cell line growth inhibition [POLQ]
APPLIED CONDITIONS: curve of first compound; second compound 1 µM
pIC50: −log10 of the molar value.
EXPERIMENTAL ENDPOINT: pIC50

input: Tell me the measured pIC50 of CC1COCCN1c1cc(C2(O)CC3CCC(C2)O3)c2cnn(-c3ccn[nH]3)c2n1 (stereo not given) + Nc1ccc(C#CCN(C(=O)Cc2ncc(C(F)(F)F)cc2C(F)(F)F)c2ccc(F)cc2)nn1 , please.
output: > 7.50

input: Repeat for the following molecule: CC(=O)O[C@H]1C(=O)[C@@]2(C)[C@H]([C@H](OC(=O)c3ccccc3)[C@]3(O)C[C@H](OC(=O)[C@H](O)[C@@H](NC(=O)c4ccccc4)c4ccccc4)C(C)=C1C3(C)C)[C@]1(OC(C)=O)CO[C@@H]1C[C@@H]2O + COC1C(OC(N)=O)C(O)C(Oc2ccc3c(O)c(NC(=O)c4ccc(O)c(CC=C(C)C)c4)c(=O)oc3c2C)OC1(C)C
output: > 8.02

input: Can you handle O=c1[nH]cc(F)c(=O)[nH]1 + Nc1ccc(C#CCN(C(=O)Cc2ncc(C(F)(F)F)cc2C(F)(F)F)c2ccc(F)cc2)nn1 next?
output: < 5.00

input: Also check CCc1c2c(nc3ccc(O)cc13)-c1cc3c(c(=O)n1C2)COC(=O)[C@]3(O)CC + Cc1cccc(N(C)C(=O)C2C(O)CCN2c2nc(C)cc(C(F)(F)F)c2C#N)c1
output: > 8.50

input: Record: Nc1ccn(C2OC(CO)C(O)C2(F)F)c(=O)n1 (stereo not given) + COC1C(OC(N)=O)C(O)C(Oc2ccc3c(O)c(NC(=O)c4ccc(O)c(CC=C(C)C)c4)c(=O)oc3c2C)OC1(C)C
output: > 7.50

###

Tested on: 677734-321-R-J1-PDC complex spheroid viability
METHOD NOTES: Anticancer human tumor 677734-321-R-J1-PDC cell line growth inhibition [POLQ];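 note: spheroids exposed to compounds for one week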;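 for viability, T/C: 100% = vehicle DMSO treated spheroids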
APPLIED CONDITIONS: second compound 0.0316 µM; first compound 0.316 µM; stronger effect = lower value
EXPERIMENTAL ENDPOINT: viability, T/C

input: State the recorded viability, T/C for this entry: O=C(c1cc(Cc2n[nH]c(=O)c3ccccc23)ccc1F)N1CCN(C(=O)C2CC2)CC1 + Cc1cccc(N(C)C(=O)C2C(O)CCN2c2nc(C)cc(C(F)(F)F)c2C#N)c1
output: 101%

input: Can you handle CCc1c2c(nc3ccc(O)cc13)-c1cc3c(c(=O)n1C2)COC(=O)[C@]3(O)CC + Nc1ccc(C#CCN(C(=O)Cc2ncc(C(F)(F)F)cc2C(F)(F)F)c2ccc(F)cc2)nn1 next?
output: 4.02%

input: Request: COc1cc2cc(C(=O)CCC(=O)O)sc2cc1OC + Cc1cccc(N(C)C(=O)C2C(O)CCN2c2nc(C)cc(C(F)(F)F)c2C#N)c1
output: 97.2%

###

System: 677734-321-R-J1-PDC complex spheroid viability
METHOD NOTES: Anticancer human tumor 677734-321-R-J1-PDC cell line growth inhibition [POLQ];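 note: spheroids exposed to compounds for one week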;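 for viability, T/C: 100% = vehicle DMSO treated spheroids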
APPLIED CONDITIONS: second compound 0.1 µM; first compound 1 µM; stronger effect = lower value
EXPERIMENTAL ENDPOINT: viability, T/C (%)
Use % as the unit, but write only the number.

input: Give its viability, T/C value. Item: COc1ccc([C@@H](O)c2cc(-c3ncnc4cc(N5CCOCC5)ccc34)c(F)cc2Cl)nn1 + COC1C(OC(N)=O)C(O)C(Oc2ccc3c(O)c(NC(=O)c4ccc(O)c(CC=C(C)C)c4)c(=O)oc3c2C)OC1(C)C
output: 98.2

input: Record: CCCS(=O)(=O)Nc1ccc(F)c(C(=O)c2c[nH]c3ncc(-c4ccc(Cl)cc4)cc23)c1F + COC1C(OC(N)=O)C(O)C(Oc2ccc3c(O)c(NC(=O)c4ccc(O)c(CC=C(C)C)c4)c(=O)oc3c2C)OC1(C)C
output: 120

input: Now try Nc1ccn(C2OC(CO)C(O)C2(F)F)c(=O)n1 (stereo not given) + COC1C(OC(N)=O)C(O)C(Oc2ccc3c(O)c(NC(=O)c4ccc(O)c(CC=C(C)C)c4)c(=O)oc3c2C)OC1(C)C .
output: 12.8

input: Moving on to CC(C)n1c(=O)n(C)c2cnc3cc(F)c(-c4ccc(OCCCN5CCCCC5)nc4)cc3c21 + COC1C(OC(N)=O)C(O)C(Oc2ccc3c(O)c(NC(=O)c4ccc(O)c(CC=C(C)C)c4)c(=O)oc3c2C)OC1(C)C
output: 111

input: Also check O=c1[nH]cc(F)c(=O)[nH]1 + Nc1ccc(C#CCN(C(=O)Cc2ncc(C(F)(F)F)cc2C(F)(F)F)c2ccc(F)cc2)nn1
output: 108

###

System: 677734-321-R-J1-PDC complex spheroid viability
METHOD NOTES: Anticancer human tumor 677734-321-R-J1-PDC cell line growth inhibition [POLQ];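 note: spheroids exposed to compounds for one week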;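 for viability, T/C: 100% = vehicle DMSO treated spheroids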
APPLIED CONDITIONS: second compound 0.0316 µM; first compound 0.0316 µM; stronger effect = lower value
So I've got a bunch of compounds here, and I need their viability, T/C values.
Give the quantity in %, number only.

input: Record request: viability, T/C value, item CCc1cc2c(N3CCc4c(cc(Cn5ccnc5)cc4-c4cn(C)nc4C(F)(F)F)C3=O)cc(C)nc2c(OC)n1 + Cc1cccc(N(C)C(=O)C2C(O)CCN2c2nc(C)cc(C(F)(F)F)c2C#N)c1
output: 104

input: Note, next up: CC(C)n1c(=O)n(C)c2cnc3cc(F)c(-c4ccc(OCCCN5CCCCC5)nc4)cc3c21 + COC1C(OC(N)=O)C(O)C(Oc2ccc3c(O)c(NC(=O)c4ccc(O)c(CC=C(C)C)c4)c(=O)oc3c2C)OC1(C)C
output: 117

input: Similarly, C=CC(=O)N1CCN(c2nc(=O)n(-c3c(C)ccnc3C(C)C)c3nc(-c4c(O)cccc4F)c(F)cc23)C(C)C1 (stereo not given) + Nc1ccc(C#CCN(C(=O)Cc2ncc(C(F)(F)F)cc2C(F)(F)F)c2ccc(F)cc2)nn1 ?
output: 114

input: And for O=C(Nc1ccc(O)c(NS(=O)(=O)c2ccc(F)cc2)c1)c1ccc(-c2ccccc2)cc1 + Cc1cccc(N(C)C(=O)C2C(O)CCN2c2nc(C)cc(C(F)(F)F)c2C#N)c1 ?
output: 89.4

input: Try this compound too: CCc1cc2c(N3CCc4c(cc(Cn5ccnc5)cc4-c4cn(C)nc4C(F)(F)F)C3=O)ccnc2c(OC)n1 + COC1C(OC(N)=O)C(O)C(Oc2ccc3c(O)c(NC(=O)c4ccc(O)c(CC=C(C)C)c4)c(=O)oc3c2C)OC1(C)C
output: 111

###

Tested on: 677734-321-R-J1-PDC complex spheroid viability
METHOD NOTES: Anticancer human tumor 677734-321-R-J1-PDC cell line growth inhibition [POLQ];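 note: spheroids exposed to compounds for one week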
APPLIED CONDITIONS: curve of first compound; second compound 0.0316 µM
EXPERIMENTAL ENDPOINT: IC50 (nM)
Answer format: numeric, nM implied, no suffix.

input: Quick one: IC50 for CC[C@@]1(O)C(=O)OCc2c1cc1n(c2=O)Cc2cc3c(CN(C)C)c(O)ccc3nc2-1 + COC1C(OC(N)=O)C(O)C(Oc2ccc3c(O)c(NC(=O)c4ccc(O)c(CC=C(C)C)c4)c(=O)oc3c2C)OC1(C)C ?
output: 25.7

input: # repeat for COc1cccc(OCCCN)c1-c1cc(Nc2cnc(C#N)cn2)n[nH]1 + Cc1cccc(N(C)C(=O)C2C(O)CCN2c2nc(C)cc(C(F)(F)F)c2C#N)c1
output: 5.14

input: // next record CC1COCCN1c1cc(-c2ccnn2C)c2ccnc(-c3ccn[nH]3)c2n1 (stereo unspecified) + Nc1ccc(C#CCN(C(=O)Cc2ncc(C(F)(F)F)cc2C(F)(F)F)c2ccc(F)cc2)nn1
output: 87.7

input: Then this compound: CC[C@@]1(O)C(=O)OCc2c1cc1n(c2=O)Cc2cc3c(CN(C)C)c(O)ccc3nc2-1 + Cc1cccc(N(C)C(=O)C2C(O)CCN2c2nc(C)cc(C(F)(F)F)c2C#N)c1
output: 26.2

input: Follow-up item: CC1COCCN1c1cc(C2(O)CC3CCC(C2)O3)c2cnn(-c3ccn[nH]3)c2n1 (stereo unspecified) + Cc1cccc(N(C)C(=O)C2C(O)CCN2c2nc(C)cc(C(F)(F)F)c2C#N)c1
output: 96.2

input: For CC1COCCN1c1cc(-c2ccnn2C)c2ccnc(-c3ccn[nH]3)c2n1 (stereo unspecified) + Cc1cccc(N(C)C(=O)C2C(O)CCN2c2nc(C)cc(C(F)(F)F)c2C#N)c1 then?
output: 161

input: Follow-up entry: O=c1[nH]cc(F)c(=O)[nH]1 + COC1C(OC(N)=O)C(O)C(Oc2ccc3c(O)c(NC(=O)c4ccc(O)c(CC=C(C)C)c4)c(=O)oc3c2C)OC1(C)C
output: 2780

input: Please do the same for COc1cc(C2c3cc4c(cc3C(OC3OC5COC(C)OC5C(O)C3O)C3COC(=O)C23)OCO4)cc(OC)c1O (stereo unspecified) + Cc1cccc(N(C)C(=O)C2C(O)CCN2c2nc(C)cc(C(F)(F)F)c2C#N)c1 as well.
output: 773

input: One more compound: O=C(Nc1ccc(O)c(NS(=O)(=O)c2ccc(F)cc2)c1)c1ccc(-c2ccccc2)cc1 + Cc1cccc(N(C)C(=O)C2C(O)CCN2c2nc(C)cc(C(F)(F)F)c2C#N)c1
output: 4140

input: Also C=CCn1c(=O)c2cnc(Nc3ccc(N4CCN(C)CC4)cc3)nc2n1-c1cccc(C(C)(C)O)n1 + Cc1cccc(N(C)C(=O)C2C(O)CCN2c2nc(C)cc(C(F)(F)F)c2C#N)c1 ?
output: 627

input: And what about the compound CC1COCCN1c1cc(C2(S(C)(=N)=O)CC2)nc(-c2ccnc3[nH]ccc23)n1 (stereo unspecified) + Nc1ccc(C#CCN(C(=O)Cc2ncc(C(F)(F)F)cc2C(F)(F)F)c2ccc(F)cc2)nn1 ?
output: 1370
